# Measurement description: Plasma PK of ANEB-001 and THC, 30 mg or 10 mg oral Compound 1 with 21 mg THC (Example 4)
# Type: in vivo, human
# Measurement setup: human, in vivo, 21 mg, 21 mg THC + Placebo; 00H40M; read-out: THC in Plasma (concentration), Median
Result type: concentration at 40 min (ng/mL)
One number for each entry, in ng/mL.

QUERY: For the compound shown here, CCCCCc1cc(O)c2c(c1)OC(C)(C)[C@@H]1CCC(C)=C[C@@H]21 [THC, Δ9-tetrahydrocannabinol] , give the reported concentration at 40 min.
RESULT: 5.46

###

# Measurement description: Plasma PK of ANEB-001 and THC, 50 and 100 mg oral Compound 1 with THC (Example 2)
# Assay type: in vivo, human
# Measurement setup: human, in vivo, 10 mg THC + 50 mg ANEB-001; read-out: THC plasma AUClast, Geometric Mean
Result type: AUC(0-t)
Please format your answer as a value with the unit trailing.

QUERY: So what does the record say about AUC(0-t) for CCCCCc1cc(O)c2c(c1)OC(C)(C)[C@@H]1CCC(C)=C[C@@H]21 [THC, Δ9-tetrahydrocannabinol] ?
RESULT: 5.65 ng·h/mL

###

# Measurement description: Plasma PK of ANEB-001 and THC, 30 mg or 10 mg oral Compound 1 with 21 mg THC (Example 4)
# Type: in vivo, human
# Measurement setup: human, in vivo, 21 mg, 21 mg THC + Placebo; 00H00M; read-out: THC in Plasma (concentration), Mean
Result type: concentration at 0 h (ng/mL)
Numbers only, in ng/mL.

QUERY: What does the data say about its concentration at 0 h? Entry: CCCCCc1cc(O)c2c(c1)OC(C)(C)[C@@H]1CCC(C)=C[C@@H]21 [THC, Δ9-tetrahydrocannabinol]
RESULT: 0

###

# Measurement description: Plasma PK of ANEB-001 and THC, 50 and 100 mg oral Compound 1 with THC (Example 2)
# Format: in vivo, human
# Measurement setup: human, in vivo, 10 mg THC + 100 mg ANEB-001; 1 hrs; read-out: THC Concentration in Plasma, Median
# Description: A phase 2 clinical study was conducted using the design outlined in FIG. 1. Briefly, 60 adult healthy volunteers ages 18-45 (20 per arm) were selected for a randomized, double blind placebo-controlled study. Volunteers were divided into three groups: (1) THC (Δ9-Tetrahydrocannabinol, 10.5 mg)+placebo; (2) THC (10.5 mg)+Compound 1 (50 mg); and (3) THC (10.5 mg)+Compound 1 (100 mg). […] Following the general methods of Example 1, pharmacodynamic properties were measured for Compound 1 (FIGS. 13A-13F).
Result type: concentration at 1 h
Write your answer as a measured quantity: the number, then the unit.

QUERY: // returns reported concentration at 1 h for input CCCCCc1cc(O)c2c(c1)OC(C)(C)[C@@H]1CCC(C)=C[C@@H]21 [THC, Δ9-tetrahydrocannabinol]
RESULT: 1.88 ng/mL

###

# Measurement description: Plasma PK of ANEB-001 and THC, 30 mg or 10 mg oral Compound 1 with 21 mg THC (Example 4)
# Format: in vivo, human
# Measurement setup: human, in vivo, 21 mg THC + 30 mg ANEB-001; 00H40M; read-out: THC in Plasma (concentration), Median
Result type: concentration at 40 min (ng/mL)
One number for each entry, in ng/mL.

QUERY: Which concentration at 40 min value is on record for CCCCCc1cc(O)c2c(c1)OC(C)(C)[C@@H]1CCC(C)=C[C@@H]21 [THC, Δ9-tetrahydrocannabinol] ?
RESULT: 8.4
